experiment: small-molecule microarray binders of probe aWnt5a, primary screen, biochemical, biotinylated probe, 635/667 nm fluorescence (AID 1113); settings: higher = more signal;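 also: score merges 667 nm fluorescence intensity with signal-to-noise per printed feature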
result-type: composite z-score
Form field (numeric): enter value without unit.

Task item: GET /values?readout=composite z-score&item= "O=C/C=C/c1ccc2c(c1)OCO2"
Reply: -0.0748

Task item: GET /values?readout=composite z-score&item= "CCCCCCc1nc(CCCc2cc3c(c(CCCCCC)n2)[Si](C(C)C)(C(C)C)OC3)cc2c1[Si](C(C)C)(C(C)C)OC2"
Reply: -0.1

Task item: GET /values?readout=composite z-score&item= "CC(C)N1C(=O)[C@@]2(c3ccc([N+](=O)[O-])cc3)CC(=O)N(CC34CC5CC(CC(C5)C3)C4)[C@@H]2c2ccc(CO)cc21"
Reply: -0.316

Task item: GET /values?readout=composite z-score&item= CCCCCN1CC=CC23O[C@@H]4/C=C\CCC(C)OC(=O)C4[C@H]2C(=O)N(CCCCCO)[C@@H]3C1=O (some centres undefined)
Reply: -0.298

Task item: GET /values?readout=composite z-score&item= "C=CCNC(=O)[C@@H]1[C@H]2C(=O)O[C@H](c3ccccc3)[C@H](c3ccccc3)N2[C@H](c2ccc(O)cc2)[C@@]12C(=O)N(C(=O)OCCOC)c1ccccc12"
Reply: -0.0478

Task item: GET /values?readout=composite z-score&item= CCCCC(O)C1C=CC2C(=O)N(C3CCCCC3)C(=O)C2N1Nc1ccc(OC)cc1 (centres undefined)
Reply: -0.0405

Task item: GET /values?readout=composite z-score&item= "COCCOC(=O)N1C(=O)[C@@]2(c3cc(C#CCC(C(=O)OC)C(=O)OC)ccc31)[C@H](c1ccccc1OCCO)N1[C@H](c3ccccc3)[C@H](c3ccccc3)OC(=O)[C@H]1[C@@H]2C(N)=O"
Reply: 0.027

Task item: GET /values?readout=composite z-score&item= "COc1ccc(C#Cc2ccc3c(c2)[C@]2(C(=O)N3)[C@H](c3ccc(O)cc3)N3[C@H](c4ccccc4)[C@H](c4ccccc4)OC(=O)[C@H]3[C@@H]2C(=O)N2CCCCCCC2)cc1"
Reply: 0.754

Task item: GET /values?readout=composite z-score&item= "CCCCC=C[C@@H](NC(=O)c1ccc(C(=O)OC)cc1)c1ccccc1"
Reply: -0.15

Task item: GET /values?readout=composite z-score&item= "C=C(CCCC)/C(=C/C[C@H](OC(C)=O)c1ccc(CO)o1)c1cnc2ccccc2c1"
Reply: -0.0478

Task item: GET /values?readout=composite z-score&item= O=C1OCCC=C[C@H]2OC34C=CCN(Cc5ccccc5)C(=O)[C@H]3N(CCCO)C(=O)[C@@H]4C12 (some centres undefined)
Reply: -0.164

Task item: GET /values?readout=composite z-score&item= "COCCOC(=O)N1C(=O)[C@@]2(c3cc(C#CCNC(N)=O)ccc31)[C@H](c1ccc(O)cc1)N1[C@H](c3ccccc3)[C@H](c3ccccc3)OC(=O)[C@H]1[C@@H]2C(=O)Nc1nc2ccccc2s1"
Reply: -0.0242

Task item: GET /values?readout=composite z-score&item= "O=C1O[C@@H](c2ccccc2)[C@@H](c2ccccc2)N2[C@@H](c3ccc(OCCO)cc3)[C@]3(C(=O)Nc4ccccc43)[C@@H](C(=O)Nc3nc4ccccc4s3)[C@H]12"
Reply: 0.105

Task item: GET /values?readout=composite z-score&item= "CCOC(=O)C[C@H]1[C@H](OC(=O)Cc2ccc3c(c2)OCO3)[C@@H](NC(=O)C2CCCCC2)c2cc(OCCCO)ccc2N1C(=O)Cc1ccc(OC)cc1"
Reply: -0.001

From: PubChem BioAssay
